The measured values listed here are drawn from ChEMBL document CHEMBL1144732.

Biological target: Carbonic anhydrase 5B, mitochondrial (Homo sapiens)
Sequence (Q9Y2D0 whole entry): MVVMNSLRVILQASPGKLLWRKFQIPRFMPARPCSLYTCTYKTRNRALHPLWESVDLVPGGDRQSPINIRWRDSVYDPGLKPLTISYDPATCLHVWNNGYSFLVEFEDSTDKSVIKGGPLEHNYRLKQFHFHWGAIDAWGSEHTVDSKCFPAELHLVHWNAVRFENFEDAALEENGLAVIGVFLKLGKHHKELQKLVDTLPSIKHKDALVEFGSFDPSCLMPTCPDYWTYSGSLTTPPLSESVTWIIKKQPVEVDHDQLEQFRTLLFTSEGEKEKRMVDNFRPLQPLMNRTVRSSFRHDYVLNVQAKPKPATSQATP
METRIC: Ki (nM)
Please reply with the bare figure in nM and do not write the unit itself.

Problem: Requested field: Ki. Item: NS(=O)(=O)c1cc(Cl)c(Cl)c(S(N)(=O)=O)c1 [DICHLORPHENAMIDE]
Result: 91

---

Biological target: Carbonic anhydrase 13 (Mus musculus, UniProt Q9D6N1)
Sequence (Q9D6N1 whole entry): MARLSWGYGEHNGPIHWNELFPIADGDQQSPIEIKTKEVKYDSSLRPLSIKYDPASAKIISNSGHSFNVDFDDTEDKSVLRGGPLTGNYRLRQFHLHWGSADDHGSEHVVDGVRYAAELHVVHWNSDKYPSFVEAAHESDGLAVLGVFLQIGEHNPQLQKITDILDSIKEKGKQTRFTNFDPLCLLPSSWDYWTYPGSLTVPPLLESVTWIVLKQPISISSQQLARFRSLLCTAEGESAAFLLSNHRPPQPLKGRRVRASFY
# Ki values compiled below
Please reply with the bare figure in nM and do not write the unit itself.

INSERT INTO measurements (molecule, system_tested, metric, measured) VALUES
  ('NS(=O)(=O)c1cc(Cl)c(Cl)c(S(N)(=O)=O)c1 [DICHLORPHENAMIDE]', 'Carbonic anhydrase 13 (Mus musculus, UniProt Q9D6N1)', 'Ki', 1450);

# input for lookup
Problem: Requested field: Ki. Item: CCNC1CN(CCCOC)S(=O)(=O)c2sc(S(N)(=O)=O)cc21 (single isomer, unassigned) [BRINZOLAMIDE]
Result: 10

---

Molecular target: Carbonic anhydrase 14 (Homo sapiens)
Sequence (Q9ULX7 whole entry): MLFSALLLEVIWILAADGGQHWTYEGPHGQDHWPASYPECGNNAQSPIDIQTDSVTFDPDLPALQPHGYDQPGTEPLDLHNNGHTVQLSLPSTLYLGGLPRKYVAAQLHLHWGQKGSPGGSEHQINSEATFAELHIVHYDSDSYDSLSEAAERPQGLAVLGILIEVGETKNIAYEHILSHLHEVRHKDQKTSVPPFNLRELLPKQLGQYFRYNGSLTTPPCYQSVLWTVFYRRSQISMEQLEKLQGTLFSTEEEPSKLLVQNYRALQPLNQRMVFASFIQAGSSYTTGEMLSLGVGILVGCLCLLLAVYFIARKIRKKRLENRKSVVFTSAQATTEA
METRIC: Ki (nM)
Please reply with the bare figure in nM and do not write the unit itself.

Problem: Requested field: Ki. Item: NS(=O)(=O)c1cc(Cl)c(Cl)c(S(N)(=O)=O)c1 [DICHLORPHENAMIDE]
Result: 1540

---

Biological target: Carbonic anhydrase 3 (Homo sapiens, UniProt P07451)
Sequence (P07451 whole entry): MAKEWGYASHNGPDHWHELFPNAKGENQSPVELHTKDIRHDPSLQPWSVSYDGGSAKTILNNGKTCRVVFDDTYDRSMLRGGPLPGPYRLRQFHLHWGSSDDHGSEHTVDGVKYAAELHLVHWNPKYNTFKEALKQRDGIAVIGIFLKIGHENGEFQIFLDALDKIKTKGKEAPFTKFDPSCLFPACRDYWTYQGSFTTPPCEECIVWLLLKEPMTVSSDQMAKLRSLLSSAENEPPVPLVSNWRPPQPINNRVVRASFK
METRIC: Ki (µM)
Please reply with the bare figure in µM and do not write the unit itself.

Problem: Requested field: Ki. Item: NS(=O)(=O)c1cc(Cl)c(Cl)c(S(N)(=O)=O)c1 [DICHLORPHENAMIDE]
Result: 630
